run description: Thermodynamic aqueous solubility
Assay type: physicochemical
condition info: aqueous, water, thermodynamic from solid; at pH 6.85
assay metric: solubility thermodynamic (µg/mL)
Give the value in µg/mL but do not write µg/mL after it.

solubility thermodynamic for COc1cc(-c2cccc3cc([C@H](C)Nc4nc(N)ncc4C#N)n(-c4ccccc4)c(=O)c23)ccn1 [Form 1 of the free base of Compound 1] ?
4

* * *

run description: Thermodynamic aqueous solubility
Type: physicochemical
condition info: aqueous, pH 1.9, water, thermodynamic from solid; 0.5 g scale-up salts; pH of solution reported separately
assay metric: solubility thermodynamic (µg/mL)
Give the value in µg/mL but do not write µg/mL after it.

solubility thermodynamic for "COc1cc(-c2cccc3cc([C@H](C)Nc4nc(N)ncc4C#N)n(-c4ccccc4)c(=O)c23)ccn1" ?
1900
